Biological target: LPA1 (Homo sapiens, UniProt Q92633)
Sequence (Q92633 whole entry): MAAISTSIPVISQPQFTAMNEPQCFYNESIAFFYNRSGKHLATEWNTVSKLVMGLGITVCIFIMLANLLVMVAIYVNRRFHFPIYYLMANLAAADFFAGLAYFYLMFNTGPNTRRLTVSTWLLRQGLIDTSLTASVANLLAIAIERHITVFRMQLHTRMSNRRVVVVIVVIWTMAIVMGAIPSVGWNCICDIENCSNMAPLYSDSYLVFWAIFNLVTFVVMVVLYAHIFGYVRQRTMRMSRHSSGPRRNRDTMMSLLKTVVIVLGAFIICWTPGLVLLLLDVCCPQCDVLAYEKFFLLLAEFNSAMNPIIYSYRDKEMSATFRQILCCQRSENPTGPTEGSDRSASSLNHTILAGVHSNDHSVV
Assay: LPA1 Migration Assay (Oris)
Details: read-out: Cell Migration EC50
Measured EC50 by item

Consider the following illustrative entries.
| mol-smiles | value-type | reading |
| --- | --- | --- |
| Cc1noc(C#Cc2nc3sc(C4(C(=O)O)CC4)cc3s2)c1NC(=O)O[C@H](C)c1ccccc1 | EC50 | 0.05 to 0.5 µM |
| C[C@@H](OC(=O)Nc1c(-c2cc3sc(-c4ccc(C5(C(=O)O)CC5)cc4Cl)cc3s2)cnn1C)c1ccccc1 | EC50 | 0.05 to 0.5 µM |
| Cc1noc(-c2ccc(-c3ccc(Oc4nccnc4C(=O)O)cc3)cc2)c1NC(=O)O[C@H](C)c1ccccc1 | EC50 | 0.05 to 0.5 µM |
| Cc1cc(C2(C(=O)O)CC2)ccc1-c1cc2sc(-c3cnn(C)c3NC(=O)O[C@H](C)c3ccccc3)cc2s1 | EC50 | 0.05 to 0.5 µM |
| C[C@@H](OC(=O)Nc1c(-c2ccc(C#CC(=O)N[C@@H](C(=O)O)c3ccccc3)cc2)cnn1C)c1ccccc1 | EC50 | 0.05 to 0.5 µM |
| C[C@@H](OC(=O)Nc1c(CCc2cc3sc(C4(C(=O)O)CC4)cc3s2)cnn1C)c1ccccc1 | EC50 | > 0.5 µM |

Alright, here's another molecule for you.
**Query** Sample `Cc1noc(C#Cc2cc3sc(C4(C(=O)O)CC4)cc3s2)c1NC(=O)OCc1ccccc1` — what was its EC50?
**Result** 0.05 to 0.5 µM

* * *

Measured EC50 by item
Target: LPA/S1P GPCR of interest (Homo sapiens)
Construct: host or cells: CHO
Assay: Beta-Arrestin based assay (PathHunter)
Assay type: cell-based

| compound | assayed-target | EC50 |
| --- | --- | --- |
| Cc1noc(-c2ccc(-c3ccc(Oc4ncn(C)c4C(=O)O)cc3)cc2)c1NC(=O)O[C@H](C)c1ccccc1 [IT486] | LPA/S1P GPCR of interest (Homo sapiens) | 50 to 500 nM |
| Cc1noc(-c2ccc(-c3ccc(Oc4ncoc4C(=O)O)cc3)cc2)c1NC(=O)O[C@H](C)c1ccccc1 [IT419] | LPA/S1P GPCR of interest (Homo sapiens) | 50 to 500 nM |
| C[C@@H](OC(=O)Nc1c(-c2cc3sc(-c4ccc5c(CC(=O)O)c[nH]c5c4)cc3s2)cnn1C)c1ccccc1 [IT377] | LPA/S1P GPCR of interest (Homo sapiens) | > 500 nM |

**Query** Enter reported EC50 observed with LPA/S1P GPCR of interest (Homo sapiens) for C[C@@H](OC(=O)Nc1c(-c2cc3sc(-c4cnc(C5(C(=O)O)CC5)s4)cc3s2)cnn1C)c1ccccc1 [IT249]
**Result** 50 to 500 nM

**Query** Param item: C[C@@H](OC(=O)Nc1c(-c2cc3sc(-c4ccc(C5(C(=O)O)CC5)cc4Cl)cc3s2)nnn1C)c1ccccc1 [IT390]
**Result** < 50 nM

**Query** Param item: Cc1nsc(-c2cc3sc(-c4ccc(CC(=O)O)c(S(C)(=O)=O)c4)cc3s2)c1NC(=O)O[C@H](C)c1ccccc1 [IT433]
**Result** > 500 nM

**Query** Param item: C[C@@H](OC(=O)Nc1c(-c2ccc(C#CC(=O)NC3(C(=O)O)CC3)cc2)cnn1C)c1ccccc1 [IT405]
**Result** > 500 nM

**Query** Param item: Cc1nnn(-c2ccc(-c3cc(F)c(Oc4ncccc4C(=O)O)c(F)c3)cc2)c1NC(=O)O[C@H](C)c1ccccc1 [IT307]
**Result** < 50 nM

**Query** Param item: Cc1noc(-c2ccc(-c3ccc(Oc4nnccc4C(=O)O)cc3)cc2)c1NC(=O)O[C@H](C)c1ccccc1 [IT231]
**Result** 50 to 500 nM

* * *

Target: LPA/S1P GPCR of interest (Homo sapiens)
Test: Beta-Arrestin based assay (PathHunter)
pEC50: −log10 of the molar value.
value-type: pEC50

| compound | pEC50 |
| --- | --- |
| Cc1nsc(-c2cc3sc(C4CCC(C(=O)O)C4)cc3s2)c1NC(=O)O[C@H](C)c1ccccc1 (stereo partly shown) | < 6.30 |
| COc1cc(-c2cc3sc(-c4nnn(C)c4NC(=O)O[C@H](C)c4ccccc4)cc3s2)ccc1C1(C(=O)O)CC1 | 6.30 to 7.30 |
| Cc1nsc(-c2cc3sc(-c4cc(Cl)c(C5(C(=O)O)CC5)cc4F)cc3s2)c1NC(=O)O[C@H](C)c1ccccc1 | 6.30 to 7.30 |
| Cc1nsc(-c2cc3sc(-c4ccc(CC(=O)O)c(Cl)c4)cc3s2)c1NC(=O)O[C@H](C)c1ccccc1 | < 6.30 |
| C[C@@H](OC(=O)Nc1c(-c2cc3sc(-c4ccc(C5(C(=O)O)CC5)cc4Cl)cc3s2)cnn1C)c1ccccc1 | > 7.30 |

**Query** Sample `Cc1nsc(-c2ccc(-c3ncc(C4(C(=O)O)CC4)s3)cc2)c1NC(=O)O[C@H](C)c1ccccc1` — what was its pEC50?
**Result** < 6.30

**Query** Param item: `Cc1cc(C2(C(=O)O)CC2)c(F)cc1-c1cc2sc(-c3snc(C)c3NC(=O)O[C@H](C)c3ccccc3)cc2s1`
**Result** > 7.30

**Query** Param item: `C[C@@H](OC(=O)Nc1cccnc1C#Cc1cc2sc(C3(C(=O)O)CC3)cc2s1)c1ccccc1`
**Result** 6.30 to 7.30

**Query** Param item: `C[C@@H](OC(=O)Nc1c(-c2ccc(C#CC(=O)NCC(=O)O)cc2)cnn1C)c1ccccc1`
**Result** < 6.30

**Query** Param item: `C[C@@H](OC(=O)Nc1c(-c2cc3sc(-c4ccc(CC(=O)O)c(C(F)(F)F)c4)cc3s2)cnn1C)c1ccccc1`
**Result** 6.30 to 7.30

* * *

Target: LPA/S1P GPCR of interest (Homo sapiens, UniProt Q92633)
Assay: Beta-Arrestin based assay (PathHunter)
value-type: EC50

Consider the following illustrative entries.
| mol-smiles | assayed-target | EC50 |
| --- | --- | --- |
| C[C@@H](OC(=O)Nc1c(-c2cc3sc(-c4cc(F)c(CC(=O)O)c(F)c4)cc3s2)cnn1C)c1ccccc1 | LPA/S1P GPCR of interest (Homo sapiens, UniProt Q92633) | 50 to 500 nM |
| C[C@@H](OC(=O)Nc1c(-c2cc3sc(C#CC4(C(=O)O)CC4)cc3s2)cnn1C)c1ccccc1 | LPA/S1P GPCR of interest (Homo sapiens, UniProt Q92633) | < 50 nM |
| Cc1cc(-c2cc3sc(-c4nnn(C)c4NC(=O)O[C@H](C)c4ccccc4)cc3s2)ccc1C1(C(=O)O)CC1 | LPA/S1P GPCR of interest (Homo sapiens, UniProt Q92633) | 50 to 500 nM |
| Cc1nsc(-c2ccc(-c3nnc(CC(=O)O)o3)cc2)c1NC(=O)O[C@H](C)c1ccccc1 | LPA/S1P GPCR of interest (Homo sapiens, UniProt Q92633) | > 500 nM |
| Cc1noc(-c2ccc(-c3cc(F)c(OC(C)(C)C(=O)O)c(F)c3)cc2)c1NC(=O)O[C@H](C)c1ccccc1 | LPA/S1P GPCR of interest (Homo sapiens, UniProt Q92633) | < 50 nM |
| Cc1nsc(-c2cc(Cl)c(-c3cc4sc(C5(C(=O)O)CC5)cc4s3)cc2F)c1NC(=O)O[C@H](C)c1ccccc1 | LPA/S1P GPCR of interest (Homo sapiens, UniProt Q92633) | < 50 nM |

**Query** Sample `Cc1nsc(-c2cc3sc(-c4ccc(-c5nnc(CC(=O)O)o5)cc4)cc3s2)c1NC(=O)O[C@H](C)c1ccccc1` — what was its EC50?
**Result** > 500 nM

**Query** Param item: `COc1cc(-c2cc3sc(-c4nnn(C)c4NC(=O)O[C@H](C)c4ccccc4)cc3s2)cnc1C1(C(=O)O)CC1`
**Result** 50 to 500 nM

**Query** Param item: `C[C@@H](OC(=O)Nc1c(-c2cc3sc(-c4ccc5occ(CC(=O)O)c5c4)cc3s2)cnn1C)c1ccccc1`
**Result** 50 to 500 nM

**Query** Param item: `Cc1noc(-c2ccc(-c3ccc(OC(C)(C)C(=O)O)cc3)cc2)c1NC(=O)O[C@H](C)c1ccccc1`
**Result** < 50 nM

* * *

Biological target: LPA/S1P GPCR of interest (Homo sapiens)
Construct: host or cells: CHO
Assay: Beta-Arrestin based assay (PathHunter)
Format: cell-based
pEC50: −log10 of the molar value.
Measured pEC50 by item

Consider the following illustrative entries.
| mol-smiles | pEC50 |
| --- | --- |
| Cc1nsc(-c2cc3sc(-c4cc(F)c(C5(C(=O)O)CC5)cc4F)cc3s2)c1NC(=O)O[C@H](C)c1ccccc1 | > 7.30 |
| COc1cc(-c2cc3sc(-c4nnn(C)c4NC(=O)O[C@H](C)c4ccccc4)cc3s2)c(OC)cc1CC(=O)O | < 6.30 |
| Cc1nnn(-c2ccc(-c3ccc(Oc4cccc(F)c4C(=O)O)cc3)cc2)c1NC(=O)O[C@H](C)c1ccccc1 | 6.30 to 7.30 |

**Query** Sample `Cc1nsc(-c2cc3sc(-c4ccc5occ(CC(=O)O)c5c4)cc3s2)c1NC(=O)O[C@H](C)c1ccccc1` — what was its pEC50?
**Result** 6.30 to 7.30
